test system: MCF10A; experiment: one-nucleolus phenotype percent effect (relative to siNT 0% and siNOL11 100%); higher = more cells with one nucleolus (ribosome biogenesis inhibition); conditions: 20 nM; 72 h
Record form. Attribute: one-nucleolus phenotype percent effect. Fill in for each entry.
Numbers only, in %.

sequence_text="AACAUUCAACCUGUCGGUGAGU [hsa-miR-181c-5p]" reported_property="one-nucleolus phenotype percent effect" readout_value=6.56
sequence_text="GUGCAUUGUAGUUGCAUUGCA [hsa-miR-33a-5p]" reported_property="one-nucleolus phenotype percent effect" readout_value=-0.977
sequence_text="GGAUGGAGGAGGGGUCU [hsa-miR-4534]" reported_property="one-nucleolus phenotype percent effect" readout_value=-5.6

State the recorded one-nucleolus phenotype percent effect for every item in the following list.
1. AGACUGACCUUCAACCCCACAG [hsa-miR-6855-3p]
2. UGGACUGCCCUGAUCUGGAGA [hsa-miR-1288]
3. CAUCUCUAAGGAACUCCCCCAA [hsa-miR-3675-3p]
4. AGGACUGAUCCUCUCGGGCAGG [hsa-miR-4740-5p]
5. UUAGGCCAUCAUCCCAUUAUGC [hsa-miR-5704]

// result
[-4.32, 7.88, 10.4, 47.7, -23.2]

State recorded one-nucleolus phenotype percent effect for all listed sequences.
1. UGCCUACUGAGCUGAAACACAG [hsa-miR-24-2-5p]
2. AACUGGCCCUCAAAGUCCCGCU [hsa-miR-193b-3p]

// result
1. 7.59
2. 24.4

Provide each entry's one-nucleolus phenotype percent effect from the list below.
1. AAAGAUGGACAAUUGGCUAAAU [hsa-miR-4662b]
2. UGGCAAGGAAAGAAGAGGAUCA [hsa-miR-6809-5p]

// result
49.4
115

###

test system: MCF10A; experiment: percent viability (nuclei count relative to siNT); higher = more viable cells; details: 20 nM; 72 h
Give measured percent viability for each item. Keep answers brief.
Give bare numbers, in %.

Some sequences with known percent viability results, for comparison:
sequence_text="AAUCCACGCUGAGCUUGGCAUC [hsa-miR-5092]" readout_value=22.3
sequence_text="GCGCUGACCCGCCUUCUCCGCA [hsa-miR-6825-3p]" readout_value=108
sequence_text="UCACCUGAGCUCCCGUGCCUG [hsa-miR-3622b-3p]" readout_value=107
sequence_text="ACUGGACUUGGAGGCAGAA [hsa-miR-378b]" readout_value=36.5
sequence_text="UUCUGGAUAACAUGCUGAAGCU [hsa-miR-5706]" readout_value=176

# ---- query sequence ----
// query Lab note: need percent viability for GAAAGUAAUUGCUGUUUUUGCC [hsa-miR-548aq-5p] on MCF10A, anyone have it?
// result 118

###

test system: MCF10A; assay: percent viability (nuclei count relative to siNT); higher = more viable cells; conditions: 20 nM; 72 h
percent viability strictly less than 50% = met. Otherwise not met.

Example results:
sequence_text="GAUAUUCAGAGGCUAGGUGG [hsa-miR-6074]" assay_system=MCF10A qualitative_label=met
sequence_text="AUGCGGACCUGGGUUAGCGGAGU [hsa-miR-4754]" assay_system=MCF10A qualitative_label=met
sequence_text="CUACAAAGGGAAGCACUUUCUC [hsa-miR-524-5p]" assay_system=MCF10A qualitative_label=met
sequence_text="ACCCCCGGGCAAAGACCUGCAGAU [hsa-miR-6840-5p]" assay_system=MCF10A qualitative_label="not met"
sequence_text="ACCUUCUUGUAUAAGCACUGUGCUAAA [hsa-miR-1248]" assay_system=MCF10A qualitative_label="not met"

// query Hello, is percent viability of the following sequence strictly smaller than 50%? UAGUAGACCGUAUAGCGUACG [hsa-miR-411-5p]
// result not met

// query Moving on to the next sequence: CCCCGCCACCGCCUUGG [hsa-miR-4258]
// result not met

// query Cool, now UCUGAAUUGUAAGAGUUGUUA [hsa-miR-4680-3p]
// result not met

// query Next sequence up: CAUAGCCCGGUCGCUGGUACAUGA [hsa-miR-3651]
// result not met
